assay: OD615 S. cerevisiae growth inhibition, permissive medium, pilot counter-assay, permissive growth control for S. cerevisiae lifespan shortening project (AID 705); conditions: OD615, 24 h, at 10 µM, stronger effect = higher value
Calls of active or inactive are those of the source.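 The calls were made as follows: active = growth inhibition above 25% in both replicates, a cutoff set 3 SD above the mean; inconclusive = above 25% in only one replicate; inactive = the rest.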
MEASURED_METRIC: growth inhibition

Some solved entries appear below for comparison.
- COMPOUND: "COc1cccc(C(=O)Nc2nnc(-c3cccs3)o2)c1"
  VALUE_REPORTED: "-16.4% (inactive)"
- COMPOUND: "CCS(=O)(=O)N1CCN(C(=O)c2cccs2)CC1"
  VALUE_REPORTED: "-9.68% (inactive)"
- COMPOUND: "C=CCNc1nc2c(c(=O)[nH]c(=O)n2C)n1Cc1cccc(C)c1"
  VALUE_REPORTED: "2.89% (inactive)"
- COMPOUND: "CCOC(=O)N1CCN(C(=O)c2ccc3c(c2)N(CC)CCS3)CC1"
  VALUE_REPORTED: "-2.54% (inactive)"
- COMPOUND: "COc1cccc(CNC(=O)CN(c2cc(C)cc(C)c2)S(=O)(=O)c2c(C)noc2C)c1"
  VALUE_REPORTED: "-6.25% (inactive)"
- COMPOUND: "CC1(C)CC(=O)c2sc(NC(=O)C3CC3)nc2C1"
  VALUE_REPORTED: "-1.12% (inactive)"

(Q) State, in one line, measured growth inhibition of CC1=CCC(C(=O)O)C(C(=O)O)C1 (centres undefined)
(A) -2.08% (inactive)

(Q) State, in one line, measured growth inhibition of c1cnc(N2CCSCC2)nc1
(A) 2.61% (inactive)

(Q) State, in one line, measured growth inhibition of CCOC(=O)Cn1c(CN2CCOCC2)nc2c1c(=O)n(C)c(=O)n2C
(A) -1.92% (inactive)

(Q) State, in one line, measured growth inhibition of O=C(Nc1ccccc1Cl)N1CCN(c2ccccn2)CC1
(A) -6.09% (inactive)

(Q) State, in one line, measured growth inhibition of Cc1cnc(C(=O)OCC(=O)Nc2cccc(Cl)c2)cn1
(A) -0.055% (inactive)

The measured values listed here are drawn from PubChem BioAssay.
